Tested on: SF-295
Assay: NCI tumour cell line growth inhibition, 48 h
Activity calls are given as the source filed them. Cut-off read from the data, not from the text of the source: active = GI50 up to about 1.1 µM and inactive = higher.
Select the correct class. Options are active, inactive and nothing else.

COc1cc(C2CC(C)(Nc3ccccc3)Oc3cc4c(cc32)OCO4)cc(OC)c1OC (stereo not given)	active

Query block: Given COc1cc(O)c2c(=O)c(O)c(-c3ccc(O)c(O)c3)oc2c1 , state the outcome it received in this test.
Result block: inactive

Query block: What did this assay record as the result for O=C1Nc2cc([N+](=O)[O-])ccc2C(=O)N2CCC[C@@H]12 ?
Result block: inactive

Query block: Assay outcome for Cc1ncc(CSc2ccccc2N)c(CO)c1O : what was it?
Result block: inactive

Query block: Answer briefly: the call reported for COc1ccc2c(c1)C1Oc3ccccc3CC1(O)CO2 (stereo not given) in this assay.
Result block: inactive

Query block: Assay outcome for C[C@@H]1C[C@@H]2OC(=O)[C@]3(C)[C@H]2[C@@H](OC3(C)O)[C@]2(C)C(=O)C=C[C@@H]12 (stereo not given in full) : what was it?
Result block: inactive
